biological target: Zinc finger protein GLI1 (Mus musculus) (UniProt P47806); assay: Inhibition of GLI1 transcriptional activity in HH-responsive mouse NIH3T3 cells assessed as reduction in GLI1 protein expression at 5 uM incubated for 48 hrs in presence of SAG by Western blot analysis; type: cell-based
Sequence (P47806 whole entry): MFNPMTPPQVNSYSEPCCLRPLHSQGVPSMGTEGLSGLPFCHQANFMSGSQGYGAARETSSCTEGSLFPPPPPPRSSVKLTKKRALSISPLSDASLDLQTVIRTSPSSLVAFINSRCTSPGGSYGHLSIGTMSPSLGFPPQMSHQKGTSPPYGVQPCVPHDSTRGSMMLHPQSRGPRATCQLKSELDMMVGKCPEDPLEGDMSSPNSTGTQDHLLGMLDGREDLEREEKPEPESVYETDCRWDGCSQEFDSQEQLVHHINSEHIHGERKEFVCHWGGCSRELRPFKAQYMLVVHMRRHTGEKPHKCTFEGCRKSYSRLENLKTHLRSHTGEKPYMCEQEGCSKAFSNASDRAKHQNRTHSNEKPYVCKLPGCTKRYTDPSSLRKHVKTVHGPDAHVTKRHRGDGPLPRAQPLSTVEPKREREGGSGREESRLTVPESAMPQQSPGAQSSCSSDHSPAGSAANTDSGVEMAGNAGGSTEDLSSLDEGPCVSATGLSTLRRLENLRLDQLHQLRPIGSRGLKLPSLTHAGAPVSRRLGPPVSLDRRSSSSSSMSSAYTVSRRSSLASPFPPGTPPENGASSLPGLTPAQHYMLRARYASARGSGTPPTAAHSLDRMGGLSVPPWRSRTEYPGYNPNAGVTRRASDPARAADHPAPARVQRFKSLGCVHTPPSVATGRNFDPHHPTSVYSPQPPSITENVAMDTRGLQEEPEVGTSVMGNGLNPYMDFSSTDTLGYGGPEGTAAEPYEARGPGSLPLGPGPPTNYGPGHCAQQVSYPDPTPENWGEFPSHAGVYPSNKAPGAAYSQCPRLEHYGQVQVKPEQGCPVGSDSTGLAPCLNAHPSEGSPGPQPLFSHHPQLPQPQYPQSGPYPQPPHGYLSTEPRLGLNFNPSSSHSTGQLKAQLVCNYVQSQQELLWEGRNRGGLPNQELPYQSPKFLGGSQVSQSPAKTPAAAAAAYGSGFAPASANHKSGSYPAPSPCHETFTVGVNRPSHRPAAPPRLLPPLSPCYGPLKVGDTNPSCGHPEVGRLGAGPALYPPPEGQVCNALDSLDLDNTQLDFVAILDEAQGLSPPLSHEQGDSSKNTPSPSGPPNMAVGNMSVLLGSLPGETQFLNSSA
The source made the active and inactive calls. No cut-off for these calls is given here.

{"molecule": "COc1cc(OC)c2c(=O)c(-c3ccc(OCC=C(C)C)c(OCC=C(C)C)c3)coc2c1", "inhibition": "Active"}
{"molecule": "CCOC(=O)c1c(-c2ccccc2)csc1NC(NC(=O)c1cccc(Cl)c1)C(Cl)(Cl)Cl (centres undefined)", "inhibition": "Active"}
{"molecule": "CCOC(=O)c1c(-c2ccccc2)csc1NC(NC(=O)c1ccc([N+](=O)[O-])cc1)C(Cl)(Cl)Cl (centres undefined)", "inhibition": "Active"}
{"molecule": "O=C(NC1CCCc2ccccc21)c1cnn2c(C(F)F)cc(C3CC3)nc12 (centres undefined)", "inhibition": "Active"}
